biological target: Tyrosyl-tRNA synthetase, putative (Trypanosoma cruzi (strain CL Brener)); assay: Trypanosoma cruzi tyrosyl tRNA synthetase (TcYRS) SOP; assay type: functional; set-up: scale not given: direction of the effect not stated beside the values; settings: 30 µM
outcome_measure: Percent Effect (%)
Answers are plain numbers, in %.

Past entries and their recorded results:
# compound, result_value
data = [
    ("CN(C)C(=O)C1CN(Cc2cscn2)CCN(S(C)(=O)=O)C1 (stereo unspecified)", 19.5),
    ("CCc1noc(C)c1C(=O)N1CCCC1Cn1cc(C)cn1 (stereo unspecified)", 1.24),
    ("O=C1CCSCC(C(=O)N2CCCC2)N1 (stereo unspecified)", 5),
    ("COc1ccc(CN(C)C(=O)CCc2c(C)nc(C)[nH]c2=O)cc1OC", 12.8),
    ("O=C(CC1CN(Cc2ccccc2)CCO1)Nc1ccccc1F (stereo unspecified)", 15.8),
    ("CCS(=O)(=O)N1CCc2c(CN(C)Cc3ccco3)cncc2C1", 5),
    ("COC(=O)CNC(=O)CSCc1nc(O)c2c(C)c(C)sc2n1", 0),
    ("CN(C)C(=O)CO[C@@H]1CC[C@H]2[C@H]1OCCN2C(=O)C1CCOCC1", 8.54),
    ("O=C(NCc1cc[nH]n1)NCC(c1ccccc1Cl)N1CCCC1 (stereo unspecified)", 13.6),
    ("O=C(NCCS(=O)(=O)N1CCc2ccccc21)c1c(O)cc(F)cc1F", 0),
]

Could you now consider this next compound?
QUERY: Requested field: Percent Effect. Item: "O=C(c1ccc2[nH]ccc2c1)N1CCn2cnc(COCC3CC3)c2C1"
RESULT: 37.2
